B1: CASP6 (parent)
chain: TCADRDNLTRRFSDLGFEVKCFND

Variants of: B1
protocolSummary: protein stability index of a GFP-peptide fusion (GPS, HEK-293T) (PSI 1-6); higher = more stable;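 also: lentivirally expressed fusions sorted by FACS into six bins by GFP to DsRed ratio, PSI derived from sequencing read proportions per bin multiplied by bin number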
settings: c terminus: a fixed tail appended
observationType: protein stability index
Answers are plain numbers.

variantdescription=R11V reportedvalue=2.76
variantdescription=E18C reportedvalue=2.76
variantdescription=L15A reportedvalue=3.16

Lab note: each variant below needs its protein stability index filled in.
1. C2L
2. F17R
3. N7K
4. C2Y
5. L15Y
6. V19P
7. N7F
8. E18I

Result:
1: 3.25; 2: 2.95; 3: 3.06; 4: 3.23; 5: 3.02; 6: 4.38; 7: 2.78; 8: 2.65

# credit: the supplement of paper PMC10567573
